src = patent US8772480B2

# target.under.test: UniProtKB O14965
# Assay type: biochemical
# reported.conditions: AURORA A; 1 μM compound concentration
Note that class boundaries on POC (Percent of control) AURORA A are lower level (below 80 POC), middle level (80 POC to below 100 POC), upper level (100 POC or more)

Solved cases (5 shown):
| smiles.text | discrete.label |
| --- | --- |
| Cc1cnc(Nc2cccc3[nH]ccc23)c(-c2nc(C)nc(N)n2)c1 | lower level |
| COc1ccc(Nc2ncc(CN3CCN(C(C)=O)CC3)cc2-c2nc(C)nc3[nH]cnc23)cn1 | upper level |
| COc1ccc(Nc2ncccc2-c2nc(C)nc3[nH]cnc23)cn1 | middle level |
| c1cnc(Nc2cccc3[nH]ccc23)c(-c2ncnc3[nH]cnc23)c1 | lower level |
| Cc1nc(N)nc(-c2cccnc2Nc2cccc(O)c2)n1 | upper level |

Lab note: next compound to report on.
[Q] Class label required: `Cc1cnc(Nc2cccc3[nH]ncc23)c(-c2nc(C)nc(N)n2)c1`
[A] middle level
